- Target Of Assay: human CCR5 (Homo sapiens, UniProt P51681)
- Construct: expressed in transfected cells
- Sequence (P51681 whole entry): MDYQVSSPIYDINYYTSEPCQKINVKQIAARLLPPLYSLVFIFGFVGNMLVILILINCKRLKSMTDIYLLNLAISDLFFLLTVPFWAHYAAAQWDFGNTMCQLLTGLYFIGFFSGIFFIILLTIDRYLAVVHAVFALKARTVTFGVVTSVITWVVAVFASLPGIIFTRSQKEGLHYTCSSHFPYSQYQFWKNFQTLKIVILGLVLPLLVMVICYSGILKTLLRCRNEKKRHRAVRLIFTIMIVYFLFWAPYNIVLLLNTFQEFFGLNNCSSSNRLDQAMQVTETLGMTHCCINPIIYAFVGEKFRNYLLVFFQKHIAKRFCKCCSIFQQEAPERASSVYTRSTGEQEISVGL
- Method: CCR5 binding inhibition: [125I]-RANTES binding to CHO/CCR5 cells
- Protocol Conditions: Test Compound 1 µM, 100 pM [125I]-RANTES as ligand, room temperature, 40 minutes, read-out: Inhibitory rate (%) at 1.0 µM
- Protocol: CHO-K1 cells were grown in 750ml of tissue culture flask (Becton Dickinson) using Ham's F12 medium (Nihon Pharmaceutical) containing 10% fetal calf serum (Life Tech Oriental) and took off with 0.5 g/L trypsin-0.2 g/L EDTA (Life Tech Oriental). The cells were washed with PBS (Life Tech Oriental), centrifuged (1000 rpm, 5 minutes), and suspended in PBS. […] Radioactivity was determined with γ-counter to select CHO/CCR5 cells which specifically bind to the ligand. […]
Where a name gives a salt, the structure may show the parent alone.
Tag: condition met if measured inhibition at 1 µM is not below 70%, condition not met if it is.

Compound: CN1CC(C(=O)N(CCCN2CCC3(C=Cc4ccccc43)CC2)c2ccccc2)CC1=O (centres unmarked) [Example 8, fumarate]
Cat: condition not met
//
Compound: O=C1CC(C(=O)N(CCCN2CCC(Cc3ccccc3)CC2)c2ccccc2)CN1Cc1ccccc1Cl (centres unmarked)
Cat: condition met
//
Compound: CN1CC(C(=O)N(CCCCN2CCC(C(=O)c3ccc(F)cc3)CC2)c2ccccc2)CC1=O (centres unmarked)
Cat: condition not met
//
Compound: CN1CC(C(=O)N(CCCN2CCC(Cc3ccccc3)CC2)c2cccc(Cl)c2)CC1=O (centres unmarked) [Example 38, hydrochloride]
Cat: condition met
//
Compound: CN1CC(C(=O)N(CCCN2CCC(Cc3ccccc3)CC2)Cc2ccccc2)CC1=O (centres unmarked)
Cat: condition not met

----------
Each record here notes measured inhibition at 1 µM.
- Target Of Assay: human CCR5 (Homo sapiens, UniProt P51681)
- Construct: expressed in transfected cells
- Method: CCR5 binding inhibition: [125I]-RANTES binding to CHO/CCR5 cells
- Protocol Conditions: Test Compound 1 µM, 100 pM [125I]-RANTES as ligand, room temperature, 40 minutes, read-out: Inhibitory rate (%) at 1.0 µM
Counter-ions that a name gives are not always drawn.
Measurement Name: inhibition at 1 µM (%)

Compound: O=C1CC(C(=O)N(CCCN2CCC(Cc3ccccc3)CC2)c2ccccc2)CN1c1ccccc1 (stereo not shown) [Example 52]
Measurement Name: inhibition at 1 µM
Result Number: 76
//
Compound: CN1CC(C(=O)N(CCCN2CCC(Cc3ccccc3)CC2)c2ccc(Cl)c(Cl)c2)CC1=O (stereo not shown) [Example 23, hydrochloride]
Measurement Name: inhibition at 1 µM
Result Number: 95
//
Compound: O=C1CC(C(=O)N(CCCN2CCC(Cc3ccccc3)CC2)c2ccccc2)CN1CC(F)(F)F (stereo not shown) [Example 93]
Measurement Name: inhibition at 1 µM
Result Number: 90
//
Compound: CN1CC(C(=O)N(CCCN2CCC(Cc3ccc(F)cc3)CC2)c2ccc(Cl)c(Cl)c2)CC1=O (stereo not shown) [Example 84, hydrochloride]
Measurement Name: inhibition at 1 µM
Result Number: 92
//
Compound: O=C1CC(C(=O)N(CCCN2CCC(Cc3ccccc3)CC2)c2ccccc2)CN1Cc1ccccc1 (stereo not shown) [Example 51]
Measurement Name: inhibition at 1 µM
Result Number: 92
//
Compound: CN1CC(C(=O)N(CCCN2CCC(C(=O)c3ccc(F)cc3)CC2)c2ccccc2)CC1=O (stereo not shown) [Example 13]
Measurement Name: inhibition at 1 µM
Result Number: 40
//
Compound: CN1CC(C(=O)N(CCCN2CCC(Cc3ccccc3)CC2)c2ccccc2)CC1=O (stereo not shown) [Example 1, hydrochloride]
Measurement Name: inhibition at 1 µM
Result Number: 57
